assay: Elimination half life in cynomolgus monkey at 1 mg/kg, iv; type: ADME, organism-based, Macaca fascicularis; design: dose 1 mg/kg, route intravenous; conditions: in vivo, read-out: beta t1/2 (converted)
QUANTITY_NAME: half-life (h)
Answer format: numeric, h implied, no suffix.

CC1=C2C[C@H]3[C@@H](CC[C@@H]4C[C@H](NS(C)(=O)=O)CC[C@@]43C)[C@@H]2CC[C@@]2(C1)O[C@@H]1C[C@H](C)CN[C@H]1[C@H]2C: 8.2
CC1=C2C[C@H]3[C@@H](CC[C@@H]4Cc5[nH]ncc5C[C@@]43C)[C@@H]2CC[C@@]2(C1)O[C@@H]1C[C@H](C)CN[C@H]1[C@H]2C: 5.6
CC1=C2C[C@H]3[C@@H](CCC4=CC(=O)CC[C@@]43C)[C@@H]2CC[C@@]2(C1)O[C@@H]1C[C@H](C)CN[C@H]1[C@H]2C: 2.4

Then this compound:
half-life measured on CC1=C2C[C@H]3[C@@H](CC[C@@H]4CNC(=O)CC[C@@]43C)[C@@H]2CC[C@@]2(C1)O[C@@H]1C[C@H](C)CN[C@H]1[C@H]2C = 3.8
